ASSAY SYSTEM: T1, class I MHC receptor HLA-A2 on T2 cells (human)
T1 construct: detected on the cell surface with a mouse anti-human HLA-A2 monoclonal antibody and goat anti-mouse IgG F(ab')2-FITC; also called HLA-A2 receptor; HLA-A2 class I MHC
ASSAY PROTOCOL: T2 cells, anti-HLA-A2 flow cytometry after brefeldin A; Assay #2; 4 hr
PROPERTY NAME: fluorescence index (F.I.)
Express it in F.I.; write the number only.

Please fill in: fluorescence index reported for GQGDVMVFV [Filamin B peptide #6] = 1.29

Please fill in: fluorescence index reported for KLILGLVWT [Filamin B peptide #7] = 1.1

Please fill in: fluorescence index reported for LILGLVWTL [Filamin B peptide #1] = 2.16

Please fill in: fluorescence index reported for GLAPLEVRV [Filamin B peptide #3] = 3.35

Please fill in: fluorescence index reported for SLQESGLKV [Filamin B peptide #4] = 1.13
